target_of_assay: Na, K-ATPase (Ovis aries, UniProt P04074)
Construct: Na, K-ATPase will be purified from the outer medulla of frozen lamb kidney; from tissue; host or cells: outer medulla of frozen lamb kidney
experimental_protocol: NKA assay started by addition of ATP
Format: biochemical, lamb
assay_setup: assay started by addition of ATP; determination 2; read-out: IC50_2
List of pIC50 values.
Notebook: values listed as pIC50 are -log10 of the concentration (mol/L).

Recorded pIC50, per entry:
compound	result_value
Cc1cc(O)c2c(c1)C(=O)c1cc(O)cc(O)c1C2=O	4.12
COc1cc2c(c(OC)c1)Sc1ccccc1C(=O)C2	4.37
COc1cccc2c1Sc1ccccc1C(=O)C2	3.99
CC(CCc1ccc(O)cc1)NCCc1ccc(O)c(O)c1 (stereo not drawn)	4.11
Oc1cc(O)c2c(c1)O[C@H](c1ccc(O)c(O)c1)[C@@H](O)C2 [Compound 9, (+)-Catechin Hydrate]	3.60

Task: Query (compound): O=C1C=CC2C(=C1[N+](=O)[O-])Oc1c(ccc(O)c1[N+](=O)[O-])C2c1ccccc1C(=O)O (stereo not drawn) ; field requested: pIC50
Output: 5.05

###

target_of_assay: Na, K-ATPase (Ovis aries)
Construct: Na, K-ATPase will be purified from the outer medulla of frozen lamb kidney; from tissue; host or cells: outer medulla of frozen lamb kidney
experimental_protocol: NKA assay started by addition of KCl
Assay type: biochemical, lamb
assay_setup: assay started by addition of KCl; determination 1; read-out: IC50_1
result_type: IC50 (µM)
The answer is to be given in µM; state only the numeric part.

Task: Query (molecule): COc1cc2c(c(OC)c1)Sc1ccccc1C(=O)C2 [Compound 28] ; field requested: IC50
Output: 75.6

###

target_of_assay: Na, K-ATPase (Ovis aries, UniProt P04074)
Construct: Na, K-ATPase will be purified from the outer medulla of frozen lamb kidney; from tissue; host or cells: outer medulla of frozen lamb kidney
experimental_protocol: NKA assay started by addition of ATP
Assay type: biochemical, lamb
assay_setup: assay started by addition of ATP; average; read-out: IC50_aver.
pIC50: −log10 of the molar value.
Tick Criterion met if pIC50 is 4 or greater. Tick Criterion not met if pIC50 is less than 4.

Completed entries (count: 2):
compound	class
COc1cccc2c1Sc1ccccc1C(=O)C2	Criterion not met
CC(CCc1ccc(O)cc1)NCCc1ccc(O)c(O)c1 (centres unmarked)	Criterion met

Task: For this compound, is measured pIC50 4 or higher? Oc1cc(O)c2c(c1)O[C@H](c1ccc(O)c(O)c1)[C@@H](O)C2 [Compound 9, (+)-Catechin Hydrate]
Output: Criterion not met

Task: For this compound, is measured pIC50 4 or higher? O=C1C=CC2C(=C1[N+](=O)[O-])Oc1c(ccc(O)c1[N+](=O)[O-])C2c1ccccc1C(=O)O (centres unmarked)
Output: Criterion met

###

target_of_assay: Na, K-ATPase (Ovis aries, UniProt P04074)
Construct: Na, K-ATPase will be purified from the outer medulla of frozen lamb kidney; from tissue; host or cells: outer medulla of frozen lamb kidney
experimental_protocol: NKA assay started by addition of KCl
Assay type: biochemical, lamb
assay_setup: IC50_1, assay started by addition of KCl; determination 1
result_type: pIC50
Notebook: values listed as pIC50 are -log10 of the concentration (mol/L).

Task: Query (molecule): O=C1C=CC2C(=C1[N+](=O)[O-])Oc1c(ccc(O)c1[N+](=O)[O-])C2c1ccccc1C(=O)O (stereo not shown) ; field requested: pIC50
Output: 5.11
